measured target: PCSK9 (Homo sapiens, UniProt Q8NBP7)
Sequence (Q8NBP7 153-692): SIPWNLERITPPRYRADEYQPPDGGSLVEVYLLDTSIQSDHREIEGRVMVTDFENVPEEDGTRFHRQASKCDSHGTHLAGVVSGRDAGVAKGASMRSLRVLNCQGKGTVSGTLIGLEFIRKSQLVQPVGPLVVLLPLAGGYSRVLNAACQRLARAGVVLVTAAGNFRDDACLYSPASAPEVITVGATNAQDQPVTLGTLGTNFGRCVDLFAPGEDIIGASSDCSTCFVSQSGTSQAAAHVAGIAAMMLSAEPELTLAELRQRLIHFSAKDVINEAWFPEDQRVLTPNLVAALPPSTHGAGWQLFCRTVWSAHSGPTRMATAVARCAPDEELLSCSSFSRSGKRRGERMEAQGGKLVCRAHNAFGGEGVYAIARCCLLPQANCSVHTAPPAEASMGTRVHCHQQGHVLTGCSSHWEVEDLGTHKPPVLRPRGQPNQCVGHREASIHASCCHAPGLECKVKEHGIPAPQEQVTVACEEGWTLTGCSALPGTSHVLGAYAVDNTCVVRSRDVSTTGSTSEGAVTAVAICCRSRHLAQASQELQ
Sequence (Q8NBP7 31-152 partner limits assumed): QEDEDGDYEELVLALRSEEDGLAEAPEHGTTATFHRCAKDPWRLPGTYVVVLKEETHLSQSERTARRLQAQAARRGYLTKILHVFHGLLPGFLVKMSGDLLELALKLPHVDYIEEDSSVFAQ
procedure details: PCSK9/EGF(A) TR-FRET binding assay
condition parameters: TR-FRET; Table 8E, additional compounds; read-out: PCSK9/EGF(A) IC50
Square brackets hold non-standard residues; d marks the D form. Peptide text beside a SMILES is read from it. * marks the point of attachment. Trp(6-Cl) = N[C@@H](Cc1c[nH]c2cc(Cl)ccc12)C(=O)O; Desaminotyrosyl = O=C(CCc1ccc(O)cc1)*; Pentanoyl(5-Ph) = O=C(CCCCc1ccccc1)*; hArg = N=C(N)NCCCC[C@H](N)C(=O)O; X22 = O=C(C1CC(Cc2ccccc2)C1)*; X15 = COc1cccc(CCC(=O)*)c1; Pentanoyl = CCCCC(=O)*
Each record is given True if its reported IC50 is strictly below 20 µM. Records at or above 20 µM are given False.

Example cases with answers are listed next.
compound	classification
CCCCC(=O)N[C@@H](Cc1c[nH]c2ccccc12)C(=O)N[C@@H](CC(N)=O)C(=O)N[C@@H](CC(C)C)C(=O)N[C@H](C(=O)N[C@@H](CCCNC(=N)N)C(=O)N[C@H](C(=O)NCC(=O)N[C@@H](CC(C)C)C(=O)NCC(=O)N[C@@H](CCCNC(=N)N)C(N)=O)[C@@H](C)CC)C(C)C [Compound 179] (Pentanoyl-WNLVRIGLGR-NH2)	False
CC[C@H](C)[C@H](NC(=O)[C@H](CCCNC(=N)N)NC(=O)[C@@H](NC(=O)[C@H](CC(C)C)NC(=O)[C@H](CC(N)=O)NC(=O)[C@H](Cc1c[nH]c2ccccc12)NC(=O)C1CC(Cc2ccccc2)C1)C(C)C)C(=O)NCC(=O)N[C@@H](CC(C)C)C(=O)N[C@H](C(=O)N[C@@H](CCCNC(=N)N)C(N)=O)[C@@H](C)O (some centres unmarked) [Compound 184] (X22-WNLVRIGLTR-NH2)	True
CC[C@H](C)[C@H](NC(=O)[C@H](CCCNC(=N)N)NC(=O)[C@@H](NC(=O)[C@H](CC(C)C)NC(=O)[C@H](CC(N)=O)NC(=O)[C@H](Cc1c[nH]c2ccccc12)NC(=O)CCc1ccc(O)cc1)C(C)C)C(=O)NCC(=O)N[C@@H](CC(C)C)C(=O)N[C@H](C(=O)N[C@@H](CCCNC(=N)N)C(N)=O)[C@@H](C)O [Compound 170] (Desaminotyrosyl-WNLVRIGLTR-NH2)	False
CCCCC(=O)N[C@@H](Cc1c[nH]c2cc(Cl)ccc12)C(=O)N[C@@H](CC(N)=O)C(=O)N[C@@H](CC(C)C)C(=O)N[C@H](C(=O)N[C@@H](CCCNC(=N)N)C(=O)N[C@H](C(=O)NCC(=O)N[C@@H](CC(C)C)C(=O)N[C@H](C(=O)N[C@@H](CCCNC(=N)N)C(N)=O)[C@@H](C)O)[C@@H](C)CC)C(C)C [Compound 186] (Pentanoyl-[Trp(6-Cl)]NLVRIGLTR-NH2)	False
CC[C@H](C)[C@H](NC(=O)[C@H](CCCCNC(=N)N)NC(=O)[C@@H](NC(=O)[C@H](CC(C)C)NC(=O)[C@H](CC(N)=O)NC(=O)[C@H](Cc1c[nH]c2ccccc12)NC(=O)CCc1cccc(OC)c1)C(C)C)C(=O)NCC(=O)N[C@@H](CC(C)C)C(=O)N[C@@H](CC(C)C)C(=O)N[C@@H](CCCNC(=N)N)C(N)=O [Compound 202] (X15-WNLV[hArg]IGLLR-NH2)	True
CC[C@H](C)[C@H](NC(=O)[C@H](CCCCNC(=N)N)NC(=O)[C@@H](NC(=O)[C@H](CC(C)C)NC(=O)[C@H](CC(N)=O)NC(=O)[C@H](Cc1c[nH]c2ccccc12)NC(=O)CNC(=O)[C@@H]1CCCN1C(=O)[C@H](Cc1ccccc1)NC(=O)[C@H](CO)NC(=O)[C@H](CCC(=O)O)NC(C)=O)C(C)C)C(=O)NCC(=O)N[C@@H](CC(C)C)C(=O)N[C@@H](CC(C)C)C(=O)N[C@@H](CCCNC(=N)N)C(N)=O [Compound 227] (Ac-ESFPGWNLV[hArg]IGLLR-NH2)	True

Query block: Is IC50 of CC[C@H](C)[C@H](NC(=O)[C@H](CCCCNC(=N)N)NC(=O)[C@@H](NC(=O)[C@H](CC(C)C)NC(=O)[C@H](CC(N)=O)NC(=O)[C@H](Cc1c[nH]c2ccccc12)NC(=O)[C@H](N)Cc1ccc(O)cc1)C(C)C)C(=O)NCC(=O)N[C@@H](CC(C)C)C(=O)N[C@@H](CC(C)C)C(=O)N[C@@H](CCCNC(=N)N)C(N)=O [Compound 223] (H-[dY]WNLV[hArg]IGLLR-NH2) strictly below 20 µM?
Result block: False

Query block: Is IC50 of CC[C@H](C)[C@H](NC(=O)[C@H](CCCNC(=N)N)NC(=O)[C@@H](NC(=O)[C@H](CC(C)C)NC(=O)[C@H](CC(N)=O)NC(=O)[C@H](Cc1c[nH]c2ccccc12)NC(=O)CCCCc1ccccc1)C(C)C)C(=O)NCC(=O)N[C@@H](CC(C)C)C(=O)N[C@@H](CC(C)C)C(=O)N[C@@H](CCCNC(=N)N)C(N)=O [Compound 146] ({Pentanoyl(5-Ph)}-WNLVRIGLLR-NH2) strictly below 20 µM?
Result block: True

---

measured target: PCSK9 (Homo sapiens, UniProt Q8NBP7)
procedure details: PCSK9/EGF(A) TR-FRET binding assay
condition parameters: TR-FRET; Table 8E, additional compounds; read-out: PCSK9/EGF(A) IC50
Square brackets hold non-standard residues; d marks the D form. Peptide text beside a SMILES is read from it. * marks the point of attachment. hArg = N=C(N)NCCCC[C@H](N)C(=O)O; X29 = Nc1ccc(CCC(=O)*)cc1
property: pIC50
For clarity, pIC50 is expressed as the negative log10 of concentration in mol/L.

Query block: Supply pIC50 value. Item: CC[C@H](C)[C@H](NC(=O)[C@H](CCCCNC(=N)N)NC(=O)[C@@H](NC(=O)[C@H](CC(C)C)NC(=O)[C@H](CC(N)=O)NC(=O)[C@H](Cc1c[nH]c2ccccc12)NC(=O)CCc1ccc(N)cc1)C(C)C)C(=O)NCC(=O)N[C@@H](CC(C)C)C(=O)N[C@@H](CC(C)C)C(=O)N[C@@H](CCCNC(=N)N)C(N)=O [Compound 218] (X29-WNLV[hArg]IGLLR-NH2)
Result block: 5.30

---

measured target: PCSK9Δhelix (Homo sapiens, UniProt Q8NBP7)
Construct: Human PCSK9 construct M1-Q692 with an engineered TEV site (residue deletion Y166, R167); made in house; host or cells: CHO
Sequence (Q8NBP7 with tags, fused parts or gaps limits assumed): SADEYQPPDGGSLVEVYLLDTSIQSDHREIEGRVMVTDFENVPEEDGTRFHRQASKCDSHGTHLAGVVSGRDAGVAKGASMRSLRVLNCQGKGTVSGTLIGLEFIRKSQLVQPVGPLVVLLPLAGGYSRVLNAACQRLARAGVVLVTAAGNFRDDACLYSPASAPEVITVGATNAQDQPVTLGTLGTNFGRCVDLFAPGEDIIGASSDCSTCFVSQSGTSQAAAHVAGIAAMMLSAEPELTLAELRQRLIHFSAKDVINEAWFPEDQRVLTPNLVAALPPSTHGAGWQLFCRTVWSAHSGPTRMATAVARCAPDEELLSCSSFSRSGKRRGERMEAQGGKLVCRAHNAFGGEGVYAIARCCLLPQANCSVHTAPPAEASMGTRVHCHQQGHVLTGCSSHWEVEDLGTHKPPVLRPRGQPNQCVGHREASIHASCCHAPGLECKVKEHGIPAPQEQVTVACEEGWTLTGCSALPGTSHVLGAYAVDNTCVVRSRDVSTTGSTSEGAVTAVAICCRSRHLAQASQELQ
Sequence (Q8NBP7 31-152 partner limits assumed): as the sequence (Q8NBP7 31-152 partner limits assumed) above
procedure details: PCSK9Δhelix/Ab20 TR-FRET binding assay
condition parameters: Table 11, average ±S.D. of three experiments; read-out: Ab20 IC50
Square brackets hold non-standard residues; d marks the D form. Peptide text beside a SMILES is read from it. hArg = N=C(N)NCCCC[C@H](N)C(=O)O
# Lookup of reported IC50 keyed by entry
Only the number, expressed in nM, is required.

compound	unit annotation	IC50
CC[C@H](C)[C@H](NC(=O)[C@H](CCCCNC(=N)N)NC(=O)[C@@H](NC(=O)[C@H](CC(C)C)NC(=O)[C@H](CC(N)=O)NC(=O)[C@H](Cc1c[nH]c2ccccc12)NC(=O)CNC(=O)[C@@H]1CCCN1C(=O)[C@H](Cc1ccccc1)NC(=O)[C@H](CO)NC(=O)[C@H](CCC(=O)O)NC(=O)[C@H](CCSC)NC(C)=O)C(C)C)C(=O)NCC(=O)N[C@@H](CC(C)C)C(=O)N[C@@H](CC(C)C)C(=O)N[C@@H](CCCNC(=N)N)C(N)=O [Compound 229] (Ac-MESFPGWNLV[hArg]IGLLR-NH2)	nM	840

Alright, here's another compound for you.
Query block: Supply IC50 value. Item: CC[C@H](C)[C@H](NC(=O)[C@H](CCCCNC(=N)N)NC(=O)[C@@H](NC(=O)[C@H](CC(C)C)NC(=O)[C@H](CC(N)=O)NC(=O)[C@H](Cc1c[nH]c2ccccc12)NC(=O)CNC(=O)[C@@H]1CCCN1C(=O)[C@H](Cc1ccccc1)NC(=O)[C@H](CO)NC(=O)[C@H](CCC(=O)O)NC(C)=O)C(C)C)C(=O)NCC(=O)N[C@@H](CC(C)C)C(=O)N[C@@H](CC(C)C)C(=O)N[C@@H](CCCNC(=N)N)C(N)=O [Compound 227] (Ac-ESFPGWNLV[hArg]IGLLR-NH2)
Result block: 2510

---

measured target: PCSK9 (Homo sapiens)
procedure details: PCSK9/EGF(A) TR-FRET binding assay
condition parameters: TR-FRET; Table 8E, additional compounds; read-out: PCSK9/EGF(A) IC50
# Lookup of reported IC50 keyed by entry
Only the number, expressed in µM, is required.

substance	measured target	IC50 / µM
Ac-ESYPGWNLVRIGLLR-NH2 [Compound 156]	PCSK9 (Homo sapiens)	11
Ac-DSYPGWNLVRIGLLR-NH2 [Compound 155]	PCSK9 (Homo sapiens)	11
Ac-SFAFPGWNLVRIGLLR-NH2 [Compound 154]	PCSK9 (Homo sapiens)	11

Alright, here's another substance for you.
Query block: Supply IC50 value. Item: Ac-MDSFPGWNLVRIGLLR-NH2 [Compound 153]
Result block: 12
